Biological target: Prostaglandin E2 receptor EP4 subtype (Homo sapiens, UniProt P35408)
Sequence (P35408 whole entry): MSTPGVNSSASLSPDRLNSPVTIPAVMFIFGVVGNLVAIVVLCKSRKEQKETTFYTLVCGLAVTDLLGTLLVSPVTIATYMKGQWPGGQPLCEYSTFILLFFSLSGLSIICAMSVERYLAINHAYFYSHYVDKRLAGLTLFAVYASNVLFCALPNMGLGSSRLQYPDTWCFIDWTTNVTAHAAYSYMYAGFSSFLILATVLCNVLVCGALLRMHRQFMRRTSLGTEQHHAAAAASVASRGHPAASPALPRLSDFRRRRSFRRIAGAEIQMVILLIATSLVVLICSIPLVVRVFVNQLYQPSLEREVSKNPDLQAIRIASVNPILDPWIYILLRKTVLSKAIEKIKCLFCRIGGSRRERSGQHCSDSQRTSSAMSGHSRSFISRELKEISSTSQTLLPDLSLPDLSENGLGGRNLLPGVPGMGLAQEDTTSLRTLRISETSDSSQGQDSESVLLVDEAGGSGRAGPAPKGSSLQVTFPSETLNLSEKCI
Test: Binding affinity to human EP4 receptor
result type: Ki

Notebook: Cc1ccc(N(CCN2CCC(OCC(=O)O)CC2)C(=O)c2ccc3c(c2)OCO3)cc1.Cl.O , Ki read as > 50 µM

---

Molecular target: Prostaglandin E2 receptor EP3 subtype (Homo sapiens)
Sequence (P43115 whole entry): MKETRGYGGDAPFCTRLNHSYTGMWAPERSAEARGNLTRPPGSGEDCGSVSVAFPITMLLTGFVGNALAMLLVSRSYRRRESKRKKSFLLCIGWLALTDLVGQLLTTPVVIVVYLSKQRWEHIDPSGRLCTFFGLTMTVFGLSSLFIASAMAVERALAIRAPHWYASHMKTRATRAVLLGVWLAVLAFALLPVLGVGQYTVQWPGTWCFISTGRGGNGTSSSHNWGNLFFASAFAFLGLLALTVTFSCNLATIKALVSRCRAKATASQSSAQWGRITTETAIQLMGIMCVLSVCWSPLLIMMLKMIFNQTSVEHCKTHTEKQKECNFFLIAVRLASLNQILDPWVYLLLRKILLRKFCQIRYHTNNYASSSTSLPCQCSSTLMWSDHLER
pKi: −log10 of the molar value.
result type: pKi

Notebook: Cc1ccc(N(CCN2CCC(OCC(=O)O)CC2)C(=O)c2ccc3c(c2)OCO3)cc1.Cl.O , pKi read as < 4.30

---

Target sequence: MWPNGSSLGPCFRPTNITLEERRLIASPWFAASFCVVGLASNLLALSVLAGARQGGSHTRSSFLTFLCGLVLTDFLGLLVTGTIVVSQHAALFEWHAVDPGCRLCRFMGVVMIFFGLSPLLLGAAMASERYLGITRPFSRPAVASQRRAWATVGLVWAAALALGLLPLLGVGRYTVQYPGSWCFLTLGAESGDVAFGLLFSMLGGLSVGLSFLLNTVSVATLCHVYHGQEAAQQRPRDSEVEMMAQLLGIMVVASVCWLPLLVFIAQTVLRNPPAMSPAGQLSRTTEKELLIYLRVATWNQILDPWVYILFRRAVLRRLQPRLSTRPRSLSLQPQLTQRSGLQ
pKi: −log10 of the molar value.
result type: pKi

Notebook: Cc1ccc(N(CCN2CCC(OCC(=O)O)CC2)C(=O)c2ccc3c(c2)OCO3)cc1.Cl.O , pKi read as < 4.30
